B1: SEC22B (parent)
chain: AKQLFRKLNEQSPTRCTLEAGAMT

# Variants of: B1
# Assay procedure: protein stability index of a GFP-peptide fusion (GPS, HEK-293T) (PSI 1-6); higher = more stable;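 further: lentivirally expressed fusions sorted by FACS into six bins by GFP to DsRed ratio, PSI derived from sequencing read proportions per bin multiplied by bin number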
# Test parameters: c terminus: a fixed tail appended
Readout type: protein stability index
// no unit string in output, number only

{"Chain": "AAQLFRKLNEQSPTRCTLEAGAMT", "protein stability index": 2.13}
{"Chain": "AKQLFRKLNEQSPTRCTLWAGAMT", "protein stability index": 2.22}
{"Chain": "AKQLFRKLNEQSPTRCTLEWGAMT", "protein stability index": 1.59}
{"Chain": "AKQLFRKLNETSPTRCTLEAGAMT", "protein stability index": 1.82}
{"Chain": "AKQLFRKLNEQSPGRCTLEAGAMT", "protein stability index": 1.74}
{"Chain": "AKQLFRKLNEQSPTRCTLEQGAMT", "protein stability index": 2.87}

Prompt: Find the recorded protein stability index belonging to AKQLFRKLNEQSPTRCTLERGAMT and report it.
Completion: 2.77

Prompt: Find the recorded protein stability index belonging to AKQLFRKLNEQSPTRCTLEMGAMT and report it.
Completion: 3.4

meta.source: the supplement of paper PMC10567573
